- ASSAY_PROTOCOL: Rat colon pharmacokinetic study (plasma, colon, colon + fecal content)
- Format: in vivo
- REPORTED_CONDITIONS: SD rats, 10 mg/kg oral gavage, colon homogenized with fecal content
REPORTED_ENDPOINT: Colon + Feces AUC

Solved cases (3 shown):
MOLECULE	Colon + Feces AUC
C[C@@H](C#N)NC(=O)c1ccc(-c2nc(Nc3cnn(C4CCN(C)CC4)c3)ncc2Cl)cc1 [Example 43]	559,570 h*ng/g
Cc1cnc(Nc2cnn(CC#N)c2)nc1-c1ccc(C(=O)NCC#N)cc1 [Example 4]	545,501 h*ng/g
CC[C@@H](C#N)NC(=O)c1ccc(-c2nc(Nc3cnn(C4CCN(C)CC4)c3)ncc2C)cc1 [Example 184]	827,222 h*ng/g

Let us move to another entry and its Colon + Feces AUC.
Lookup result for Cc1cnc(Nc2cnn(C3CCN(C(=O)CO)CC3)c2)nc1-c1ccc(C(=O)N[C@@H](C)C#N)cc1 [Example 119] ; measured Colon + Feces AUC: 1,629,181 h*ng/g

###

Catalogue of Colon AUC readings, one per entry.
- ASSAY_PROTOCOL: Rat colon pharmacokinetic study (plasma, colon, colon + fecal content)
- Type: in vivo
- REPORTED_CONDITIONS: SD rats, 10 mg/kg oral gavage, colon washed of fecal content
- Protocol: The aim of this study was to obtain the pharmacokinetics of test articles in SD rats after oral administration. […] Rats were dosed with 10 mg/kg (1 mg/ml) via oral gavage. […] Plasma was obtained within one hour of blood collection by centrifugation at 8000g, 4-10° C. for 6 minutes, and then stored at −20° C. until analyzed by LC-MS/MS for quantification. […] Homogenized samples were extracted with 3 fold volumes of acetonitrile and quantified against a standard curve with LC-MS/MS system.
Number in ng·h/g, nothing else.

SMILES_NOTATION	NUMERIC_VALUE
C[C@@H](C#N)NC(=O)c1ccc(-c2nc(Nc3cnn(C4CCN(C)CC4)c3)ncc2Cl)cc1	3860

For record `Cc1cnc(Nc2cnn(C3CCN(C(=O)CO)CC3)c2)nc1-c1ccc(C(=O)N[C@@H](C)C#N)cc1` the listed Colon AUC is 6898

###

- MEASURED_TARGET: JAK1 (Homo sapiens, UniProt P23458)
- Construct: purchased Carna Biosciences
- Sequence (P23458 whole entry): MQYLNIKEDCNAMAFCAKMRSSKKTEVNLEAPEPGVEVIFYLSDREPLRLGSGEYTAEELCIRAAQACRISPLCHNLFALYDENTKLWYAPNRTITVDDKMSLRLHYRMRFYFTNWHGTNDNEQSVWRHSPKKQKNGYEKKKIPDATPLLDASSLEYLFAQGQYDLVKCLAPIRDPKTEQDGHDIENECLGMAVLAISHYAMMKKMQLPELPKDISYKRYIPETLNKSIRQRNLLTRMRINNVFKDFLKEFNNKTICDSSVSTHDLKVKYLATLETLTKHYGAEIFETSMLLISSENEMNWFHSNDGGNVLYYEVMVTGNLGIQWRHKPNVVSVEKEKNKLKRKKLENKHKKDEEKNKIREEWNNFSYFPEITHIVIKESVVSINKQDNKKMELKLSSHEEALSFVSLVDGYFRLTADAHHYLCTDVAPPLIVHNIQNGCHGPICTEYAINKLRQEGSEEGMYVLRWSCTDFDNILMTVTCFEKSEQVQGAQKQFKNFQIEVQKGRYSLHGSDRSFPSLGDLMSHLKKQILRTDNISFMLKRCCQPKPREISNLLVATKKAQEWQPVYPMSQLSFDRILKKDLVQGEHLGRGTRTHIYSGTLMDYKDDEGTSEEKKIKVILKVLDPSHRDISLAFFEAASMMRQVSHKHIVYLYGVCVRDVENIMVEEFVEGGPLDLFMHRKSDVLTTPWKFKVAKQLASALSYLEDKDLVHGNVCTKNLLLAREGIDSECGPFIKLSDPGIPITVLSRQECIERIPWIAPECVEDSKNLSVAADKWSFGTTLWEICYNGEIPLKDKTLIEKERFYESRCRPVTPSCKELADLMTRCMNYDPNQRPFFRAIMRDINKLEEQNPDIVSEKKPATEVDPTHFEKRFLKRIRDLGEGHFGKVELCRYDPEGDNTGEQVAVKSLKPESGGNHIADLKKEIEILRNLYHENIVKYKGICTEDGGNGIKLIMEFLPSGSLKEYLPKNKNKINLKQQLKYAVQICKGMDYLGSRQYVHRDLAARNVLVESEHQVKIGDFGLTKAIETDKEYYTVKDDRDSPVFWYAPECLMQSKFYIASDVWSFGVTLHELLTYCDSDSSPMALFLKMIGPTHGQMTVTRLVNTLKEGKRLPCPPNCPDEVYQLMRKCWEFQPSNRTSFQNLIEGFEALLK
- ASSAY_PROTOCOL: JAK1 microfluidic kinase assay (Caliper EZ Reader II, FAM labeled peptide substrate)
- Format: biochemical
- REPORTED_CONDITIONS: IC50 JAK1 (5 nM) (1 m MATP), JAK1 5 nM, 1 mM ATP
The entries below are paired with their reported pIC50.
Field pIC50 (float): negative decimal logarithm of the concentration in molar.

Please review the entries below; each comes with its answer.
COMPOUND	NUMERIC_VALUE
Cc1cnc(Nc2cnn(C3CCC(O)CC3)c2)nc1-c1ccc(C(=O)N[C@@H](C)C#N)cc1 (stereo partly shown)	7.84
Cc1cnc(Nc2cnn(C3CCOCC3)c2)nc1-c1ccc(C(=O)NCCC(F)(F)F)cc1	7.36
Cc1cnc(Nc2cnn(C3CCN(C)C(=O)C3)c2)nc1-c1ccc(C(=O)NCC#N)cc1 (stereo not shown)	7.74
CCn1cc(Nc2ncc(Cl)c(-c3ccc(C(=O)N[C@@H](C)C#N)cc3)n2)cn1	8.43
COC[C@@H](C#N)NC(=O)c1ccc(-c2nc(Nc3cnn(CCO)c3)ncc2C)cc1	7.98

# compound `C[C@@H](C#N)NC(=O)c1ccc(-c2nc(Nc3cnn(C4CC(C)(C)OC(C)(C)C4)c3)ncc2Cl)cc1` ; its pIC50 = 7.78

The reported pIC50 of the compound `N#CCNC(=O)c1ccc(-c2ccnc(Nc3cnn(C4CC4)c3)n2)cc1F` was 6.54

pIC50 in this record for `Cn1cc(Nc2ncc(Cl)c(-c3ccc(C(=O)NCC#N)cc3)n2)cn1` : 7.93

pIC50 for `Cc1cnc(Nc2cnn(C3CCN(C(=O)C4CC4)CC3)c2)nc1-c1ccc(C(=O)NCC2(C#N)CC2)cc1` is 7.62

# pIC50 of `Cc1cnc(Nc2cnn(C3CC3)c2)nc1-c1ccc(C(=O)NCC2(C#N)CC2)cc1` = 7.70

Form: compound = CC[C@@H](C#N)NC(=O)c1ccc(-c2nc(Nc3cnn(C(C)C(F)(F)F)c3)ncc2C)cc1 (single isomer, unassigned) [Example 225] ; pIC50 = 8.05

pIC50 measured on `C[C@@H](C#N)NC(=O)c1ccc(-c2nc(Nc3cnn(C)c3)ncc2Cl)cc1` = 7.72

The reported value for `[2H]c1c([2H])c(-c2nc(Nc3cnn(C4CC4)c3)ncc2Cl)c([2H])c([2H])c1C(=O)N[C@@H](C)C#N` in terms of pIC50 is 8.34

For `N#CC1(CNC(=O)c2ccc(-c3nc(Nc4cnn(C5CC5)c4)ncc3Cl)cc2)CC1` the compound record lists pIC50 as 7.81

Briefly, pIC50 measured for `CC[C@@H](C#N)NC(=O)c1ccc(-c2nc(Nc3cnn(C)c3)ncc2Cl)cc1` : 7.79

So for Cc1cnc(Nc2cnn(C3C[C@H]4CC[C@@H](C3)O4)c2)nc1-c1ccc(C(=O)NCC#N)cc1 (stereo partly shown) , the logged pIC50 turned out to be 7.84

// field: pIC50; key: Cc1cnc(Nc2cnn(C3CCOC(C)C3)c2)nc1-c1ccc(C(=O)NCC#N)cc1 (stereo not shown) ; value = 7.55

Looking up `Cc1cnc(Nc2cnn(C3CCN(C(=O)CO)CC3)c2)nc1-c1ccc(C(=O)NCC#N)cc1` , I see its pIC50 listed as 7.82

Documented pIC50 of `Cc1cnc(Nc2cnn([C@H]3CC[C@H](C#N)CC3)c2)nc1-c1ccc(C(=O)NCC(F)(F)F)cc1` : 8.05

pIC50 measured on `Cn1cc(Nc2ncc(Cl)c(-c3ccc(C(=O)NCC4(C#N)CC4)cc3)n2)cn1` = 7.66

Recorded pIC50 (compound `Cc1cnc(Nc2cnn(C3CC3)c2)nc1-c1ccc(C(=O)N[C@@H](C)C#N)cc1` ): 8.29

Entry under test: Cc1cnc(Nc2cnn(C3CC4CCC(C3)N4C(=O)C3(C)CC3)c2)nc1-c1ccc(C(=O)NCC#N)cc1 (stereo not shown) . Its pIC50 was 7.56

Looking up `C[C@@H](C#N)NC(=O)c1ccc(-c2nc(Nc3cnn(CCO)c3)ncc2Cl)cc1` , I see its pIC50 listed as 8.61

// `N#CCNC(=O)c1ccc(-c2nc(Nc3cnn(CC#N)c3)ncc2F)cc1` : pIC50 value = 7.22

Short answer for `Cc1cnc(Nc2cnn(C3CCOCC3)c2)nc1-c1ccc(C(=O)N[C@@H](C)C#N)cc1` : pIC50 was 7.86

Short answer for `CC[C@@H](C#N)NC(=O)c1ccc(-c2nc(Nc3cnn(C4CCNCC4)c3)ncc2Cl)cc1` : pIC50 was 8.71

// `CC[C@@H](C#N)NC(=O)c1ccc(-c2nc(Nc3cnn(C4CCN(C)CC4)c3)ncc2C)cc1` : pIC50 value = 9.21

# pIC50 (compound: Cc1cnc(Nc2cnn(C(C)C(F)(F)F)c2)nc1-c1ccc(C(=O)N[C@@H](C)C#N)cc1 (stereo partly shown) ) is 7.98

###

- MEASURED_TARGET: TYK2 (Homo sapiens, UniProt P29597)
- Construct: purchased Carna Biosciences
- Sequence (P29597 whole entry): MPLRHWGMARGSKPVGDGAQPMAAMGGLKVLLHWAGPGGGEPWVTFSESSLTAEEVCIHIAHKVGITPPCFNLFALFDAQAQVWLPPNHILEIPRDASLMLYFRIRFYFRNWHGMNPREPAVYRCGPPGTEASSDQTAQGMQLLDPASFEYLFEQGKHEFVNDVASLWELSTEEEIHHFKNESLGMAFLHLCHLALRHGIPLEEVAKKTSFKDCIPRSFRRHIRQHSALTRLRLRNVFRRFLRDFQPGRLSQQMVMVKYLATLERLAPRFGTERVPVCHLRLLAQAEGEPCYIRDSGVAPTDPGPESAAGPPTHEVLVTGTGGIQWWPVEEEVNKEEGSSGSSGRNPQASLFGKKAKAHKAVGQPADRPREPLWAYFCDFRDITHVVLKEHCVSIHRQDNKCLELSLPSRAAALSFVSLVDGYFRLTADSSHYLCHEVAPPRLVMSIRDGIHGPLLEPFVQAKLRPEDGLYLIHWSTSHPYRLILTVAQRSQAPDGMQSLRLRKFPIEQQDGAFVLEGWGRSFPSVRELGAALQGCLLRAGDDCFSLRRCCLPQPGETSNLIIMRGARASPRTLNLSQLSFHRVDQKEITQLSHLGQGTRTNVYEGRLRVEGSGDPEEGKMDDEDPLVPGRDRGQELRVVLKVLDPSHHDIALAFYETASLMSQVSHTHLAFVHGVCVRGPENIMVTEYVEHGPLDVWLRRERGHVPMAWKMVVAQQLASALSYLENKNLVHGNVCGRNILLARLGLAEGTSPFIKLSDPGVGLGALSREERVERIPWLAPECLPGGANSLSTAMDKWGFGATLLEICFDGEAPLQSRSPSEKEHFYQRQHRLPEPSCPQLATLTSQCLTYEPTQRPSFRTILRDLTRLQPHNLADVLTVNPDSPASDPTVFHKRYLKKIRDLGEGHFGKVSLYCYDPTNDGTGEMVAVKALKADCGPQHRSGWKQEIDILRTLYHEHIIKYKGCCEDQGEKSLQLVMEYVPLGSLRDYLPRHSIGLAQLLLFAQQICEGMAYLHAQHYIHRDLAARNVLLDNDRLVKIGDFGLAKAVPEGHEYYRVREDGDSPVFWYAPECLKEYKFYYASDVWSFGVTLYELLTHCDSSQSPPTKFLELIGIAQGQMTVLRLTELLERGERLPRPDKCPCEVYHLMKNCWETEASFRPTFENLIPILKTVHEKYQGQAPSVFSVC
- ASSAY_PROTOCOL: TYK2 microfluidic kinase assay (Caliper EZ Reader II, FAM labeled peptide substrate)
- Assay type: biochemical
- REPORTED_CONDITIONS: IC50 TYK2 (10 nM) (Km ATP), TYK2 10 nM, Km ATP
- Experimental: Compounds were tested against JAK1, JAK2, JAK2V617F and TYK2. Assay Formats: JAK activity was determined in the reaction buffer 50 mM HEPES, 0.01% Brij35, 10 mM MgCl2, 2 mM DTT by a microfluidic assay. The phosphorylation of a FAM labeled peptide substrate was monitored in the Caliper EZ Reader II (Perkin Elmer). The assay condition for each batch of enzyme (Carna Biosciences) was optimized to obtain 10% conversion rate of peptide substrate. […]
Lab note - cut at 0.02 µM for IC50: 1 (yes) if strictly below, 0 (no) if not.

SMILES_NOTATION	MEASURED_TARGET	CATEGORY
Cc1cnc(Nc2cnn(C3CC3)c2)nc1-c1ccc(C(=O)NC2(C#N)CC2)cc1	TYK2 (Homo sapiens, UniProt P29597)	1 (yes)
N#CC1CN(C(=O)c2ccc(-c3nc(Nc4cnn(C5CC5)c4)ncc3C(F)F)cc2F)C1	TYK2 (Homo sapiens, UniProt P29597)	0 (no)
Cc1cnc(Nc2cnn(C3CCN(C(=O)C(C)(C)C)CC3)c2)nc1-c1ccc(C(=O)NCC#N)cc1	TYK2 (Homo sapiens, UniProt P29597)	1 (yes)
Cc1cnc(Nc2cnn(C3CCN(CC#N)CC3)c2)nc1-c1ccc(C(=O)NCC#N)cc1	TYK2 (Homo sapiens, UniProt P29597)	1 (yes)
Cc1cnc(Nc2cnn(C3CCN(C(=O)C4CC4)CC3)c2)nc1-c1ccc(C(=O)N[C@@H](C)C#N)cc1	TYK2 (Homo sapiens, UniProt P29597)	1 (yes)

Now turn to the next compound.
Challenge: Hello, I'm reviewing records and need to know if IC50 of `Cc1cnc(Nc2cnn(C3CCOCC3)c2)nc1-c1ccc(C(=O)NCC2(C#N)CC2)cc1` is below 0.02 µM. Could you check?
Response given: 0 (no)
